# assay info: qHTS profiling of the MIPE4 collection as inhibitors of Plasmodium falciparum (HB3) proliferation (AID 743347);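 note: plate controls were DMSO vehicle wells for no effect and artemisinin wells for full effect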
# conditions: P. falciparum HB3 in erythrocytes, SYBR Green DNA, 72 h; at 28.5 µM (top of the series) unless noted
property label: growth, % of control (%)

>>> observed_result("O=C(NC1CCOCC1)c1ccc(-c2cc(-c3cn[nH]c3-c3ccccn3)ccn2)cc1")
47.3
>>> observed_result("O=c1c(-c2ccc(O)cc2)coc2cc(O)ccc12")
89.3
>>> observed_result("CCOc1ccc(Nc2nc(-c3c(C)nc4ccccn34)cs2)cc1")
4.43
>>> observed_result("O=C(Nc1ccccc1-c1cn2c(CN3CCNCC3)csc2n1)c1cnc2ccccc2n1")
3.22
>>> observed_result("O=C(CCc1ccc(O)cc1)c1c(O)cc(O)cc1O[C@@H]1O[C@H](CO)[C@H](O)[C@H](O)[C@H]1O")
54
>>> observed_result("COc1ccc2cccc(CCNC(C)=O)c2c1")
41
>>> observed_result("CNC(=O)c1ccc2cc(C3(O)CCn4cncc43)ccc2c1 (centres undefined)")
55
>>> observed_result("CO[C@H]1C(=O)[C@]2(C)[C@@H](OC)C[C@H]3OC[C@@]3(OC(C)=O)[C@H]2[C@H](OC(=O)c2ccccc2)[C@]2(O)C[C@H](OC(=O)[C@H](O)[C@@H](NC(=O)OC(C)(C)C)c3ccccc3)C(C)=C1C2(C)C")
3.01

====

# assay info: qHTS of pediatric cancer cell lines to identify multiple opportunities for drug repurposing: Confirmatory screen for TC32 cells (AID 1347118);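 note: cells exposed to compound for 48 h before the read; nearly all actives have a fitted effect of over 65% in size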; note: potency is the fitted concentration of half-maximal effect
# conditions: TC32 Ewing sarcoma cells viability qHTS; series mostly up to 45.9 µM
Records with an inconclusive call do not appear. Active and inactive are the calls of the source. Calls follow the shape of the dose curve; as a rule, active = well fitted cell-killing curve with a large enough effect; inconclusive = small, poorly fitted or top-dose-only effect; inactive = no such curve, though single readings can be large or run the other way.
property label: Potency

>>> observed_result("CC(=O)Oc1cc2c(s1)CCN(C(C(=O)C1CC1)c1ccccc1F)C2 (stereo unspecified)")
"inactive"
>>> observed_result("O=C(NCc1ccncc1)C12C[C@H]3C[C@@H](C1)CC(c1ccc(Cl)cc1)(C3)C2")
"9.27 µM (active)"
>>> observed_result("O=C1c2ccccc2-[n+]2ccc3c([nH]c4ccccc43)c21")
"1.31 µM (active)"
>>> observed_result("CC[C@@H]1C=C(C)C[C@H](C)C[C@H](OC)[C@H]2O[C@@](O)(C(=O)C(=O)N3CCCC[C@@H]3C(=O)O[C@H](C(C)=C[C@@H]3CC[C@H](Cl)[C@H](OC)C3)[C@H](C)[C@@H](O)CC1=O)[C@H](C)C[C@H]2OC")
"18.5 µM (active)"
>>> observed_result("O=c1[nH]cnc2c1ncn2[C@H]1CC[C@@H](CO)O1")
"inactive"
>>> observed_result("NC1=N[C@@]2(c3cc(NC(=O)c4ccc(F)cn4)ccc3F)COC[C@@H]2CS1")
"inactive"
>>> observed_result("O=C1C(Cl)=C(NCCN2CCOCC2)C(=O)c2ncccc21")
"1.04 µM (active)"
>>> observed_result("Oc1ccc(C2CCN(c3ccnc4ccccc34)CC2)cc1O")
"9.27 µM (active)"
>>> observed_result("COc1ccc(-c2coc3cc(O)cc(O)c3c2=O)cc1")
"1.04 µM (active)"
>>> observed_result("CO[C@H]1C[C@@H]2CC[C@@H](C)[C@@](O)(O2)C(=O)C(=O)N2CCCC[C@@H]2C(=O)O[C@H]([C@H](C)C[C@@H]2CC[C@H](OP(C)(C)=O)[C@H](OC)C2)CC(=O)[C@H](C)C=C(C)[C@@H](O)[C@@H](OC)C(=O)[C@H](C)C[C@H](C)C=CC=CC=C1C")
"10.4 µM (active)"
>>> observed_result("CC1(C)S[C@H]2[C@H](NC(=O)[C@@H](N)c3ccc(O)cc3)C(=O)N2[C@@H]1C(=O)O")
"inactive"
>>> observed_result("CCOc1ccc(Nc2nc(-c3c(C)nc4ccccn34)cs2)cc1")
"0.117 µM (active)"
>>> observed_result("CC(=NNC(=S)N1CCC1)c1ccccn1")
"inactive"
>>> observed_result("CC1(C)CCC(CN2CCN(c3ccc(C(=O)NS(=O)(=O)c4ccc(NCC5CCOCC5)c([N+](=O)[O-])c4)c(Oc4cnc5[nH]ccc5c4)c3)CC2)=C(c2ccc(Cl)cc2)C1")
"inactive"
>>> observed_result("COc1cccc(-c2cc(=O)c3ccccc3o2)c1N")
"20.8 µM (active)"
>>> observed_result("CCCCCCCCCCCC1=C(O)C(=O)C=C(O)C1=O")
"10.4 µM (active)"
>>> observed_result("O=C(O)c1ccc(-c2cc3cccnc3c(-c3ccc4nonc4c3)n2)cc1")
"2.61 µM (active)"
>>> observed_result("N[C@@]1(C(=O)O)CS(=O)(=O)[C@H]2[C@H](C(=O)O)[C@H]21")
"0.0522 µM (active)"
>>> observed_result("Cc1[nH]c(C=C2C(=O)Nc3ccc(S(=O)(=O)Cc4c(Cl)cccc4Cl)cc32)c(C)c1C(=O)N1CCC[C@H]1CN1CCCC1")
"11.7 µM (active)"
>>> observed_result("NS(=O)(=O)c1cccc2c1C(=O)c1cccc(O)c1C2=O")
"0.827 µM (active)"
>>> observed_result("OC[C@H]1O[C@@H](n2cnc3c2NC=NC[C@@H]3O)C[C@H]1O")
"8.27 µM (active)"

====

# assay info: Quantitative High-Throughput drug screen in 47 multiple myeloma cell lines against the NCATS MIPE library collection: RPMI8226_ATCC cell viability assay (AID 1919871); note: nearly all actives have a fitted effect of over 30% in size
# conditions: RPMI8226 myeloma viability, CellTiter-Glo ATP luminescence, 48 h; series mostly up to 45.8 µM
Records with an inconclusive call do not appear. Calls of active or inactive are those of the source. Calls follow the shape of the dose curve; as a rule, active = well fitted cell-killing curve with a large enough effect; inconclusive = small, poorly fitted or top-dose-only effect, or effect the other way; inactive = no such curve, though single readings can be large or run the other way.
Outcomes: class 1 (active), class 0 (inactive)

>>> cat("COc1ccc(-c2coc3cc(O)ccc3c2=O)cc1")
"class 0"
>>> cat("CC1(C)O[C@H]2C[C@@H]3[C@H]4CCC5=CC(=O)C=C[C@]5(C)[C@@]4(F)[C@@H](O)C[C@]3(C)[C@]2(C(=O)CO)O1")
"class 1"
>>> cat("CN(C)CCC=C1c2ccccc2COc2ccc(CC(=O)O)cc21")
"class 0"
>>> cat("CC(C)=CC[C@@H](O)C1=CC(=O)c2c(O)ccc(O)c2C1=O")
"class 1"
>>> cat("Cc1nnc(C(C)C)n1C1C[C@H]2CC[C@@H](C1)N2CC[C@H](NC(=O)C1CCC(F)(F)CC1)c1ccccc1 (some centres not stated)")
"class 0"
>>> cat("O=C(O)CCC1CCC(c2cc(F)ccc2F)(S(=O)(=O)c2ccc(Cl)cc2)CC1 (configuration not stated)")
"class 0"
>>> cat("NC(=O)NN=Cc1ccc([N+](=O)[O-])o1")
"class 0"
>>> cat("CC1(C)Cc2c(sc(NC(=S)NC(=O)c3ccccc3)c2C(=O)O)CO1")
"class 0"
>>> cat("CC[C@H]1OC(=O)[C@H](C)C(=O)[C@H](C)[C@@H](O[C@H]2O[C@H](C)C[C@H](N(C)C)[C@@H]2O)[C@](C)(OC)C[C@@H](C)C(=O)[C@H](C)[C@H]2N(CCCCn3cnc(-c4cccnc4)c3)C(=O)O[C@]12C")
"class 1"
>>> cat("O=C(NCc1ccncc1)C12C[C@H]3C[C@@H](C1)CC(c1ccc(Cl)cc1)(C3)C2")
"class 1"
>>> cat("O=C(Nc1c(Cl)cncc1Cl)c1ccc(OC(F)F)c(OCC2CC2)c1")
"class 0"
>>> cat("CC(=O)N(C)C1(c2ccccc2)CCN(CCC[C@]2(c3ccc(Cl)c(Cl)c3)CCCN(C(=O)c3ccccc3)C2)CC1")
"class 1"
>>> cat("CC(=O)OC1C(C)OC(Oc2c(-c3ccc(O)cc3)oc3cc(O)cc(O)c3c2=O)C(O)C1OC(C)=O (configuration not stated)")
"class 1"
>>> cat("COc1cc2c(cc1OC)CN(CCc1ccc(NC(=O)c3cc(OC)c(OC)cc3NC(=O)c3cnc4ccccc4c3)cc1)CC2")
"class 1"
>>> cat("CO[C@H]1C=CO[C@@]2(C)Oc3c(C)c(O)c4c(O)c(c5c(c4c3C2=O)NC2(CCN(CC(C)C)CC2)N=5)=NC(=O)C(C)=CC=C[C@H](C)[C@H](O)[C@@H](C)[C@@H](O)[C@@H](C)[C@H](OC(C)=O)[C@H]1C")
"class 1"
>>> cat("O=c1cc(-c2ccccc2)oc2cc(O)c(O)c(O)c12")
"class 0"
>>> cat("COc1ccc(-c2coc3cc(O)cc(O)c3c2=O)cc1")
"class 0"

====

# assay info: Quantitative High-Throughput drug screen in 47 multiple myeloma cell lines against the NCATS MIPE library collection: XG6_PLB cell viability assay (AID 1919865); note: nearly all actives have a fitted effect of over 40% in size
# conditions: XG6 myeloma viability, CellTiter-Glo ATP luminescence, 48 h; series mostly up to 45.8 µM
Results filed as inconclusive are left out. Activity calls are given as the source filed them. The call rests on the fitted dose curve; in most records, active means well fitted cell-killing curve with a large enough effect; inconclusive means small, poorly fitted or top-dose-only effect, or effect the other way; inactive means no such curve, though single readings can be large or run the other way.
Outcomes: t = active, f = inactive

>>> cat("COc1ccc(C2CC(c3ccccc3)=NN2c2ccc(S(N)(=O)=O)cc2)cc1 (stereo not given)")
"t"
>>> cat("Clc1ccc(C(c2ccc(Cl)cc2)n2cc[n+](CC(OCc3ccc(Cl)cc3Cl)c3ccc(Cl)cc3Cl)c2)cc1 (stereo not given)")
"t"
>>> cat("C=CCc1ccc(O)c(-c2ccc(O)c(CC=C)c2)c1")
"t"
>>> cat("O=C(Nc1ccccc1-c1cn2c(CN3CCNCC3)csc2n1)c1cnc2ccccc2n1")
"t"
>>> cat("CS(=O)(=O)N(Cc1ccco1)CC(O)Cn1c2ccccc2c2ccccc21 (stereo not given)")
"f"
>>> cat("CC(C)(C)OC(=O)N[C@H]1CCCCCC=C[C@@H]2C[C@@]2(C(=O)NS(=O)(=O)C2CC2)NC(=O)[C@@H]2C[C@@H](OC(=O)N3Cc4cccc(F)c4C3)CN2C1=O")
"f"
>>> cat("NC1CCC(Nc2nc(Nc3ccc(C(=O)N4CCCCC4)cc3)c3ncn(-c4cccc(F)c4)c3n2)CC1 (stereo not given)")
"f"
>>> cat("CN1[C@@H]2CCC[C@@H]1CC(NC(=O)c1nn(C)c3ccccc13)C2 (stereo not given in full)")
"f"
>>> cat("O=c1c(-c2ccc(O)cc2)coc2cc(OC3O[C@H](CO)[C@H](O)[C@H](O)[C@H]3O)cc(O)c12 (stereo not given in full)")
"t"
>>> cat("CCS(=O)(=O)N1CC(CC#N)(n2cc(-c3ncnc4[nH]ccc34)cn2)C1")
"t"
